target: T1, factor H binding protein (fHbp) variant 3.28 (Neisseria meningitidis M1239, fHbp v3.28, UniProt Q19KF7, strain); assay: SPR; details: both partners purified
T1 construct: also called fHbp v3.28; fHbp v3; source: E. coli BL21(DE3), purified (Ni-NTA; SEC when necessary)
Recorded kon for the following binders
Report as: number unit

Previously resolved entries follow.
>>> val("human anti-fHbp mAb 1E10 (antibody, V domains shown, source: Expi293, transient transfection, purified (protein G Sepharose)) VH: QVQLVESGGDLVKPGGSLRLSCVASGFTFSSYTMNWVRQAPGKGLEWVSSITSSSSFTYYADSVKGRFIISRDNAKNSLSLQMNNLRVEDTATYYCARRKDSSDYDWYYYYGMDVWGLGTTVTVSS VL: QSVVTQPPSVSAAPGQKVTISCSGSSSNIGDNYMSWYQQIPGTAPKLLIFDNDQRPSGIPDRFSASKSGTSATLDITGFQTGDEADYYCGTWDSGLSAPVFGGGTKLTVL")
"390000 M⁻¹ s⁻¹"
>>> val("human anti-fHbp mAb 2C8 (antibody, V domains shown, source: Expi293, transient transfection, purified (protein G Sepharose)) VH: QVQLVQSGAEVKKPGSSVKVSCKASGGTVINYPISWVRQVPGQGLEWMGRLVPLFGTPNYGQKFQGRITITADKSTSAAYMELIGLKSEDTAVYYCARGDTAMAPFDYWGHGTLVTVSS VL: QLVLTQPPSVSVAPGKTATITCGGNNVGGKTVHWYQQKPGQAPVLVMSYDSDRPSGIPERFSGSNSGNTATLTISRVEAEDEADYYCQVWHGNDDHWVFGGGTKLTVL")
"430000 M⁻¹ s⁻¹"

Alright, here's another binder for you.
INPUT: What value of measured kon is listed for human anti-fHbp mAb 4B3 (antibody, V domains shown, source: Expi293, transient transfection, purified (protein G Sepharose)) VH: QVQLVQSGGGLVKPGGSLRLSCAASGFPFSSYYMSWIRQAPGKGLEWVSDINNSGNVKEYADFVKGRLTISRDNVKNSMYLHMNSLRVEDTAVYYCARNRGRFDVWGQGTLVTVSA VL: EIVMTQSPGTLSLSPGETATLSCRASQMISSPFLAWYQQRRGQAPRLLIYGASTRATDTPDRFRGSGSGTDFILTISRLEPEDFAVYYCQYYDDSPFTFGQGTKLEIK ?
OUTPUT: 315000 M⁻¹ s⁻¹
